// provenance: a melting point compilation (Tetko et al.; mined from patent text by program, amines drawn as free bases though some values may be those of a salt)

parameter: melting point

COC1C2=C3C(=CN1OC)OCCC3CC(CCC#N)C2 (stereo not drawn)	105 to 107 °C
Nc1c(C(=O)c2cccc(Cl)c2)cc(Br)cc1[N+](=O)[O-]	134 °C
COc1ccc(Nc2cc(N3CCCC3)nc(N3CCCC3)n2)cc1	162 to 163 °C

###

parameter: melting point

O=C(NCc1ccncc1)Nc1cccc2ccccc12	178 °C
CC[C@H](C)[C@@H](CO)NS(=O)(=O)c1ccc(Cl)c(N)c1	89 to 92 °C
CC(C)(C)OC(=O)NCCc1ccnc(C#N)c1	70.5 to 71.2 °C
COc1cc2ncnc(N3CCN(C(=O)NCc4ccco4)CC3)c2cc1OC	168 to 170 °C
CCn1cnc(N2CCc3ccccc3CC2)c(C#N)c1=O	138 to 140 °C
C=Cc1cc(NC(=O)N2CCN(c3cc(C)cc(C)c3)CC2)c(OC)nc1C	131 to 132 °C
CC(C)c1n[nH]c2c(Nc3cccc(Cl)c3)nc(Cl)nc12	257 to 259 °C
Cc1nc2cc3c(cc2c(=O)[nH]1)C(N(C)c1ccc(C(=O)NC(CCc2nnnn2CC(=O)O)C(=O)O)c(F)c1)CC3 (mixture of isomers)	232 to 235 °C
COc1ccccc1Cn1c(=O)c2c(Cl)cc(N3CCNCC3)cc2n(Cc2ccccc2)c1=O	83 to 87 °C
O=C(O)C1(C(=O)O)C=CC=CN1	186 °C
CCOc1nn(-c2ccc(C(F)(F)F)cn2)cc1CCCOc1nn(CC)cc1CC(=O)O	108 to 109 °C
CN(C)Cc1nc(CSCCNC(=N)N[N+](=O)[O-])cs1	104 to 106 °C
COc1ccc(-n2cc(CCCO)c(C(C)C)n2)nn1	122 to 123 °C
C/C(=C(\C#N)C(N)=S)N1CCCN(c2ccccn2)CC1	155 to 157 °C
CCCN(CCC)C1COc2cccc(C(=O)c3ccc(F)cc3)c2C1 (stereo unspecified)	60 to 62 °C
COC(=O)C1CN(C(=O)[C@H](CO)NC(=O)OCc2ccccc2)C1	90 to 95 °C
CC(C)c1nc(CNC(=O)C(F)(F)F)n(C)c1Sc1cc(Cl)cc(Cl)c1	157 to 158 °C
CCOC(=O)N1c2ccc(C(F)(F)F)cc2[C@@H](NC(=O)OC)C[C@H]1CC	157 to 158 °C
CCCCC1=NC2(CCCC2)C(=O)N1Cc1ccc(-c2ccccc2S(=O)(=O)Nc2noc(C)c2C)c(CCC)c1	64 to 66 °C
Cc1cc2c(cc1-c1cccc(C#CC(=O)O)c1)C(C)(C)CCC2(C)C	180 to 181 °C
CN(Cc1ccc(C2=NCCN2C(=O)OC(C)(C)C)cc1)C(=O)/C=C/CNCS(=O)(=O)c1ccc([N+](=O)[O-])cc1[N+](=O)[O-]	78 °C

###

parameter: melting point

COc1ccc2cc(-c3cccc(C=O)c3)cc(CCNC(C)=O)c2c1	123 to 125 °C
CS(=O)(=O)c1ccc(-c2cnn(-c3ccc(Cl)c(F)c3)c(=O)c2-c2ccc(F)cc2)cc1	102 to 110 °C
CCC(=O)N1CCC(=O)c2cc(Cl)c(Cl)cc21	135 to 137 °C
NC(=O)c1nc(N)nc(N)c1-c1ccc(Cl)cc1Cl	298 to 299 °C
Nc1[nH]ncc1-c1nc(-c2ccco2)n[nH]1	175 to 176 °C
COc1cn(-c2ccc(-n3cccn3)cc2F)nc(-c2ccnn2-c2cccc(OC(F)(F)F)c2)c1=O	148 to 150 °C
CNc1cc(OC)cc(NCCOC)c1[N+](=O)[O-]	84 °C
CCOC(=O)C1=C(C)NC(C)=C(C(=O)OCC)C1c1csc2ccc(Br)cc12	68 to 70 °C
Brc1cccc2c1[nH]c1c2ccc2cc[nH]c21	> 250 °C
